# Test system: 519858-162-T-J1-PDC complex spheroid viability;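 also: spheroids exposed to compounds for 7 days; 100% = DMSO vehicle control viability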
# measurement.protocol: Anticancer human tumor 519858-162-T-J1-PDC patient-derived colon adenocarcinoma cell line growth inhibition [GQUAD]
# condition.summary: second compound 10 µM; first compound 0.316 µM; active compounds read low
recorded.metric: viability, T/C

Worked cases, viability, T/C given:
CC(C)(O)C1CCC(Nc2ccc3ncc(-c4cccc(C(F)(F)F)c4)n3n2)CC1 (centres undefined) + Cc1[nH]c2ccc(F)cc2c1-c1nc2c3cccnc3c3ncccc3c2[nH]1    80.3%
CC[C@@]1(O)C(=O)OCc2c1cc1n(c2=O)Cc2cc3c(CN(C)C)c(O)ccc3nc2-1 + Cc1cnc(CNC(=O)c2c(=O)c3ccc(N4CCCN(C)CC4)nc3n3c2sc2ccccc23)cn1    37.6%
CC(C)(O)C1CCC(Nc2ccc3ncc(-c4cccc(C(F)(F)F)c4)n3n2)CC1 (centres undefined) + Cc1cnc(CNC(=O)c2c(=O)c3ccc(N4CCCN(C)CC4)nc3n3c2sc2ccccc23)cn1    52.3%

Task: Recorded viability, T/C of COc1cccc2c1C(=O)c1c(O)c3c(c(O)c1C2=O)CC(O)(C(=O)CO)CC3OC1CC(N)C(O)C(C)O1 (centres undefined) + Cc1[nH]c2ccc(F)cc2c1-c1nc2c3cccnc3c3ncccc3c2[nH]1 , please.
Output: 60.7%
